Molecular target: Peroxisome proliferator-activated receptor delta (Homo sapiens, UniProt Q03181)
Sequence (Q03181 whole entry, the tested form may be a part): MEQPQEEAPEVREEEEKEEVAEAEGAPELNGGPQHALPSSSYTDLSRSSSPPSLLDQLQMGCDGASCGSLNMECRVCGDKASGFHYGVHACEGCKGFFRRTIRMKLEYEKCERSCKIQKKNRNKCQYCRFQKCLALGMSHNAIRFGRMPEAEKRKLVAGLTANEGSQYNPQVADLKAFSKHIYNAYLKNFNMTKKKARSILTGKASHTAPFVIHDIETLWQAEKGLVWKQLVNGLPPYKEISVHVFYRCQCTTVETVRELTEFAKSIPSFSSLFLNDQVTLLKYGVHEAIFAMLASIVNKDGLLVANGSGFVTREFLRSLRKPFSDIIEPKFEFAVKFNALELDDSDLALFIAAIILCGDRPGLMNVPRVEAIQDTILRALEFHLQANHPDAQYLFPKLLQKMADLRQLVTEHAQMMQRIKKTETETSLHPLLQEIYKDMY
Experiment: Agonist activity at Gal4-fused human PPAR-delta ligand binding domain expressed in CHO-K1 cells assessed as receptor transactivation incubated for 24 to 48 hrs by luciferase reporter gene assay
Measured EC50, listed per entry for reference.
Numeric answer only, unit nM assumed.

C[C@H]1CN(CCOc2cc(CC(=O)O)ccc2Cl)CCN1c1nc2ccc(Cl)cc2s1 ... 17

Req: For the molecule shown here, C[C@@H]1CN(CCOc2cc(CC(=O)O)ccc2Cl)CCN1c1nc2ccc(Cl)cc2s1 , give the reported EC50.
Resp: 7.9

Req: Suppose we examine the molecule CC(C)C[C@H]1CN(c2nc3ccc(Cl)cc3s2)CCC1CCOc1cc(CC(=O)O)ccc1Cl (some centres undefined) ; what EC50 value has been reported?
Resp: 17

Req: For the molecule shown here, Cc1cc(CC(=O)O)cc(CN2CCN(c3nc4ccc(C(F)(F)F)cc4s3)C[C@H]2C)c1 , give the reported EC50.
Resp: 9.9

Req: Entry C[C@H]1CN(c2nc3ccc(Cl)cc3s2)CCN1CCOc1cc(CC(=O)O)ccc1Cl : reported EC50 = ?
Resp: 5

Req: Reported EC50 for Cc1cc(CC(=O)O)cc(CN2CCN(c3nc4ccc(C(F)(F)F)cc4s3)[C@@H](C(C)C)C2)c1 : what is it?
Resp: 4.1

Req: Could you share which EC50 value was measured for Cc1ccc(CC(=O)O)cc1OCCN1CCN(c2nc3ccc(Cl)cc3s2)CC1 ?
Resp: 33

Req: Returns the measured EC50 for the input molecule. Input: Cc1cc(CC(=O)O)cc(CN2CCN(c3nc4ccc(C(F)(F)F)cc4s3)C[C@@H]2C)c1
Resp: 6.9

Req: Fill blank: measured EC50 of the molecule Cc1cc(CC(=O)O)cc(CN2CCN(c3nc4ccc(C(F)(F)F)cc4s3)[C@H](CC(C)C)C2)c1 is ____.
Resp: 4.3

Req: EC50 lookup needed for Cc1cc(CC(=O)O)cc(CN2CCN(c3nc4ccc(C(F)(F)F)cc4s3)[C@H](C(C)C)C2)c1 , thanks.
Resp: 3.7

Req: I have this molecule here, C[C@@H]1CN(c2nc3ccc(Cl)cc3s2)CCN1CCOc1cc(CC(=O)O)ccc1Cl , and I need its recorded EC50.
Resp: 16

====

Test: Cmax in rat at 1 mg/kg, po
Assay type: ADME, organism-based
Set-up: dose 1 mg/kg, route po
Conditions: in vivo
Assay Readout: Cmax
Note to self: number, then unit, no commentary.

Study these solved cases before continuing.
Cc1cc(CC(=O)O)cc(CN2CCN(c3nc4ccc(C(F)(F)F)cc4s3)[C@H](CC(C)C)C2)c1 ... 895 ng/mL
Cc1cc(CC(=O)O)cc(CN2CCN(c3nc4ccc(C(F)(F)F)cc4s3)[C@@H](C(C)C)C2)c1 ... 2050 ng/mL
C[C@H]1CN(c2nc3ccc(C(F)(F)F)cc3s2)CCN1CCOc1cc(CC(=O)O)ccc1Cl ... 11 ng/mL

Now take the following compound into account.
Req: Look up Cmax: CC[C@H]1CN(c2nc3ccc(C(F)(F)F)cc3s2)CCN1CCOc1cc(CC(=O)O)ccc1Cl
Resp: 10 ng/mL

====

Assay: AUC in rat at 0.5 mg/kg, iv
Format: ADME, organism-based
Parameters: dose 0.5 mg/kg, route iv
Details: in vivo
The entries below come with measured AUC values attached.
Output should be the measured figure followed by the unit it is expressed in.

Req: Query: AUC; subject: Cc1cc(CC(=O)O)cc(CN2CCN(c3nc4ccc(C(F)(F)F)cc4s3)[C@H](CC(C)C)C2)c1
Resp: 5680 ng·h/mL

Req: Find the recorded AUC belonging to C[C@H]1CN(c2nc3ccc(C(F)(F)F)cc3s2)CCN1CCOc1cc(CC(=O)O)ccc1Cl and report it.
Resp: 190 ng·h/mL

Req: Return reported AUC; argument: CC[C@H]1CN(c2nc3ccc(C(F)(F)F)cc3s2)CCN1CCOc1cc(CC(=O)O)ccc1Cl
Resp: 399 ng·h/mL

Req: Requested read-out: AUC. Entry: Cc1cc(CC(=O)O)cc(CN2CCN(c3nc4ccc(C(F)(F)F)cc4s3)[C@@H](C(C)C)C2)c1
Resp: 26700 ng·h/mL
